test system: HeLa; assay: cell viability (CellTiter-Glo) relative to median of lowest-dilution wells of all drugs (fraction); higher = more viable cells; details: drug concentration (unit not stated): 0.37; genotype: DDX11 knockout
Counter-ions that a name gives are not always drawn.
Here, each record is paired with measured cell viability data.
Parameter Measured: cell viability

Compound: Cc1cc(Nc2cc(N3CCN(C)CC3)nc(Sc3ccc(NC(=O)C4CC4)cc3)n2)n[nH]1
Measured Number: 0.951

Compound: CC1(C)CCC(c2ccc(Cl)cc2)=C(CN2CCN(c3ccc(C(=O)NS(=O)(=O)c4ccc(N[C@H](CCN5CCOCC5)CSc5ccccc5)c(S(=O)(=O)C(F)(F)F)c4)cc3)CC2)C1
Measured Number: 1.04

Compound: CC[C@@]1(O)C(=O)OCc2c1cc1n(c2=O)Cc2cc3c(CN(C)C)c(O)ccc3nc2-1 [Topotecan HCl]
Measured Number: 0.0639

Origin of the recorded values: the supplement of paper PMC8092582
